UniProt:P17706 pIC50, compiled from various sources.
Sequence (P17706 whole entry): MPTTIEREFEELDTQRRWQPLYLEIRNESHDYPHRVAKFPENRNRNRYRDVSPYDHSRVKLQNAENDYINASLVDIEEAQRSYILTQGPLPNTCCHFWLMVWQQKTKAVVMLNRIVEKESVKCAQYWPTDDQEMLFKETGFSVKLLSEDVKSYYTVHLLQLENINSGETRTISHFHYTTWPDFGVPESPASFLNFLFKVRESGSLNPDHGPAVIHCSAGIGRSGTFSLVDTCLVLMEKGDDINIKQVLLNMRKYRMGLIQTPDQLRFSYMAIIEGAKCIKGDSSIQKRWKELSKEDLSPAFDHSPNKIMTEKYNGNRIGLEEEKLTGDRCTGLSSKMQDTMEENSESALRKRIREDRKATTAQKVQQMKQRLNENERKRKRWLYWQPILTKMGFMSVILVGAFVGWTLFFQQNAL
pIC50: −log10 of the molar value.
measurement.name: pIC50

compound="O=C(COc1ccc(Cl)cc1)NC(Cc1ccc2cc(OCc3ccccc3F)ccc2c1)C(=O)O (racemic)" experimental_target=UniProt:P17706 numeric_result=4.76

1 = O=C(O)c1ccc(CN2C(=O)/C(=C/c3ccc(OCCc4ccccc4)cc3)S/C2=N\c2ccccc2)cc1
2 = CCOC(=O)/C(C)=C\C(C)=C\c1csc([C@H](Cc2ccc(OCc3ccccc3)cc2)NC(=O)C2CCCCC2)n1
3 = CCOC(=O)[C@]1(C)CCC[C@@]2(C)[C@@H]3CC[C@@]4(C)C[C@]3(CC[C@@H]21)[C@H](Br)C4=O
Please give the order of these compounds when sorted by pIC50, largest value leading. Labels, requested order.
1, 3, 2
(1: 6.15, 3: 5.77, 2: 4.81)
